- Tested on: Rattus norvegicus
- Test details: Tmax in rat at 10 mg/kg, po
- Type: ADME, organism-based
- Parameters: dose 10 mg/kg, route oral
- Protocol conditions: in vivo
Can you tell me Tmax for the items I'm about to list?
Answers are plain numbers, in min.

Consider the reported Tmax for these molecules:
O=C([O-])c1cc(-c2cccc(COc3ccc4c(c3)CN(C3CCCC3)C4=O)c2)ccc1O.[Na+]    30
COc1ccc(C(=O)[O-])cc1-c1cccc(COc2ccc3c(c2)CN(C2CCCC2)C3=O)c1.[Na+]    30
O=C([O-])c1cc(-c2cccc(COc3ccc4c(=O)n(C5CC5)sc4c3)c2)ccc1Cl.[Na+]    60

Moving on to another molecule below.
The recorded Tmax for O=C([O-])c1cc(-c2cccc(-c3ccc4c(c3)CN(C3CCCC3)C4=O)c2)ccc1Cl.[Na+] is 30
